# Ratio over Background values compiled below
biological target: T1, Insulin receptor prepared according to Bass et al., 1996: soluble human insulin receptor-immunoglobulin heavy … (human, UniProt P06213 28-956); test: phage ELISA vs milk
T1 construct: extracellular domain; Eu3+-labelled in TR-FRET; also called IR; sIR-Fc; not shown: immunoglobulin heavy chain constant domains that replace the transmembrane and i

[
  {
    "Binder": "VGRASGFPENFYDWFGRQLSLQSGEQ [H2CA-4-H6-IGFR]",
    "Ratio over Background [fold]": 0.7
  },
  {
    "Binder": "IIGGFYSYFNSVLRLGT [NNRPγ-4-A1-IR]",
    "Ratio over Background [fold]": 1.8
  },
  {
    "Binder": "PDLHKGFYAQLAQLIRGQLLS [20E2H-3-E3-IGFR]",
    "Ratio over Background [fold]": 1.3
  },
  {
    "Binder": "VERSASSQDGNFYDWFVVQIR [A6S-2-D1-IR]",
    "Ratio over Background [fold]": 12
  }
]
